- tested.on: T1, AAV9 (adeno-associated virus 9)
- T1 construct: also called adeno-associated virus serotype 9
- method: SPR, AAV amine-coupled to CM5 chip;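 note: nanobodies flowed as analyte at seven concentrations spanning 1–100 nM over immobilized AAV (500–800 RU), kinetic constants derived by fitting the binding curves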
pKd: −log10 of the molar value.
Is pKd at least 8? Then Met. If not, Not met.

Data request: Determine whether measured pKd meets or exceeds 8 for A4-089 (VHH) VHH: VQLQESGGGLVQPGGSLRLSCAASGSNFSINTMGWYRQAPGKQRELVATFTRAGNTNYADSVKGRFTISRDNGKNTVYLQMNSLRPEDTAVYYCHVDEVRDSSWTTSNLWGQGTQVTVSS
Data returned: Met

Data request: Determine whether measured pKd meets or exceeds 8 for A4-059 (VHH) VHH: VQLQESGGGAVQPGGSLRLSCAASGSHFSLNTMGWYRRAPGKQRELVATVTRGGSTNYADSVKGRFTISRDNAKNTIYLQMNSLRPEDTAVYYCHVDEVRQSTWTTSNLWGQGTQVTVSS
Data returned: Met

Data request: Determine whether measured pKd meets or exceeds 8 for A4-070 (VHH) VHH: VQLQESGGGLVQPGGSLRLSCAASGSIFSINSMGWYRQAPGKWRELVATVTRGGSTNYANSVKGRFTISRDNAKNTVYLQMNTLRPEDTAVYYCHLDEVRDSSWTTSNLWGQGTQVTVSS
Data returned: Not met

Data request: Determine whether measured pKd meets or exceeds 8 for A4-051 (VHH) VHH: VQLQESGGGLVQPGGSLRLSCAASGSSFVINTMGWYRRAPGKQRELVAAVTRGGSTNYADSVKGRFTISRDNAKNTVYLQMNSLRPEDTAVYYCHVDEVRQSSWTTSNLWGQGTQVTVSS
Data returned: Not met
